Biological target: Human Cav3.1 calcium channel (Homo sapiens, UniProt O43497)
Construct: expressed in transfected cells; host or cells: HEK-293 natClytin/TASK1+Cav3.1 cell line
Sequence (O43497 whole entry): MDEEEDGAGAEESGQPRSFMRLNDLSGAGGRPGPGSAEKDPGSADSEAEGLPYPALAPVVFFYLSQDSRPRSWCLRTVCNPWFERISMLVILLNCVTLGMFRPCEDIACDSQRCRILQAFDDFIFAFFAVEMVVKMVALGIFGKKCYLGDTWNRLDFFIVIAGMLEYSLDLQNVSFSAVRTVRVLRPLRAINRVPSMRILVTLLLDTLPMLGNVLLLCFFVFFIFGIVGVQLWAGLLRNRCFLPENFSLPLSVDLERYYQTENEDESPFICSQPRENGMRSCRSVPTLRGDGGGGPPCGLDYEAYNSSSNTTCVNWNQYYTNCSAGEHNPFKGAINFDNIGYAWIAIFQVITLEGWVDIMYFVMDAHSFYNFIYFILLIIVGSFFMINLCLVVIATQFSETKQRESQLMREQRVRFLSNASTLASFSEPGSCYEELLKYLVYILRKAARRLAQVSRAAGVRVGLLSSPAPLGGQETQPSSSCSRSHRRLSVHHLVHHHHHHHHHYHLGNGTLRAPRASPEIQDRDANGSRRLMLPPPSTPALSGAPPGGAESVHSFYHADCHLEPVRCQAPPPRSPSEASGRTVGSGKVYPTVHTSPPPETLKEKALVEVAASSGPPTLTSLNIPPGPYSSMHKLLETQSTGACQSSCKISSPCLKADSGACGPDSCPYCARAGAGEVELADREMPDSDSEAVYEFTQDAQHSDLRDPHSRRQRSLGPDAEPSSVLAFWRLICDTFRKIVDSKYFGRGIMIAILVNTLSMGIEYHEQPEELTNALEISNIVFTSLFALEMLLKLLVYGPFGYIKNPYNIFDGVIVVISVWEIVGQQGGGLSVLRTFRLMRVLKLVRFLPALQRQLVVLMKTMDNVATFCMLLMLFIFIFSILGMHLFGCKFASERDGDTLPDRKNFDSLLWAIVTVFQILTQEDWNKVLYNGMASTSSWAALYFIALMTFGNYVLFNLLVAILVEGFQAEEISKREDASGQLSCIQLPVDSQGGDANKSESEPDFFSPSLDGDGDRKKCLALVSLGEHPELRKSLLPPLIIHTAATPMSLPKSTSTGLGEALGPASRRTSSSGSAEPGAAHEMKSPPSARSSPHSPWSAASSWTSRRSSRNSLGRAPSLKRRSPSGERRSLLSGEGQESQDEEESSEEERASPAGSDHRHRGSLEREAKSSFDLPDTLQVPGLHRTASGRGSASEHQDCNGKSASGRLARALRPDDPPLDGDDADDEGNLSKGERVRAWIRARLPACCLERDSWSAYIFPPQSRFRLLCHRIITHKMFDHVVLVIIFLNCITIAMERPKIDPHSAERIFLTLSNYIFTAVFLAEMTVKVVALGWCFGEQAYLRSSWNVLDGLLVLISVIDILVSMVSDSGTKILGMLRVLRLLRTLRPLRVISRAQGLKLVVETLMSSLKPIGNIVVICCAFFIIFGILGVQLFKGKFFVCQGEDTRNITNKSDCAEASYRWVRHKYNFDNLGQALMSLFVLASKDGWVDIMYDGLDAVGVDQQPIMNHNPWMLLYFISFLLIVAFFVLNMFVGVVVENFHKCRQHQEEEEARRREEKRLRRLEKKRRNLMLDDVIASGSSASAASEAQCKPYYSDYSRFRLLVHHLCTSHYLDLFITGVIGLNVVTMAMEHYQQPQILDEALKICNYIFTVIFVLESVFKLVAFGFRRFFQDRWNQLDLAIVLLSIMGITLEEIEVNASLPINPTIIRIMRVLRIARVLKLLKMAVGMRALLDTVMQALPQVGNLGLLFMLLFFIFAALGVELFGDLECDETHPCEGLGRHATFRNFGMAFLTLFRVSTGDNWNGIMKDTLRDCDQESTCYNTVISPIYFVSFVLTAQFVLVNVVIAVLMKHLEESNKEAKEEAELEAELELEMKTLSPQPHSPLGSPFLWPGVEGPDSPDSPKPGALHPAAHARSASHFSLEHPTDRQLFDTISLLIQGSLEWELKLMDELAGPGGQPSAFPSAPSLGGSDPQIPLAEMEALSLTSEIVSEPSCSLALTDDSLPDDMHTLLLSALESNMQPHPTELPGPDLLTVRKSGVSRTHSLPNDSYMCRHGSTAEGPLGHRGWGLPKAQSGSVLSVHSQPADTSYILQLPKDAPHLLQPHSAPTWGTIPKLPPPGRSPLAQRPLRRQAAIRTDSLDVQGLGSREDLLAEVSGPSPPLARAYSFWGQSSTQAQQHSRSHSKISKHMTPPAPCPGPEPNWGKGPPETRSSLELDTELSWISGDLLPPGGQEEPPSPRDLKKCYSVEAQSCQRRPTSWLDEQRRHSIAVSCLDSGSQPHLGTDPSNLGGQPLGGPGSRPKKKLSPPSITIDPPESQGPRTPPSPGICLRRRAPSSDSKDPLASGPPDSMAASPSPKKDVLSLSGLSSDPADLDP
Test: Human Cav3.1 calcium channel patch clamp assay (SyncroPatch 384PE; single point and IC50, voltage dependent block)
Type: cell-based
Details: voltage dependent block (VDB); HEK-293 natClytin/TASK1+Cav3.1 cell line; read-out: Cav3.1 IC50
pIC50: −log10 of the molar value.
QUANTITY KIND: pIC50

• O=C(CN1CC2CC(C1)N2CC1(O)CCC(F)(F)CC1)NC12CC3CC(CC(C3)C1)C2 = 5.92
• CC(C)(C)C(O)CN1C[C@@H]2C[C@H]1CN2CC(=O)NC12CC3CC(CC(C3)C1)C2 (stereo partly drawn) = 6.15
• CC(C)(C)NC(=O)CN1C2CC1CN(CC(=O)NC13CCC(CC1)CC3)C2 = 6.00

###

Biological target: Human Cav3.1 calcium channel (Homo sapiens, UniProt O43497)
Construct: expressed in transfected cells; host or cells: HEK-293 natClytin/TASK1+Cav3.1 cell line
Assay: Human Cav3.1 calcium channel patch clamp assay (SyncroPatch 384PE; single point and IC50, voltage dependent block)
Assay type: cell-based
Conditions: Testing Conc 1.25; HEK-293 natClytin/TASK1+Cav3.1 cell line, patch clamp
Description: Certain compounds (as indicated) were tested for Human Cav3.1 calcium channel activity via a patch clamp assay as disclosed herein. Pulse generation and data collection were performed with PatchController384 V1.3.0 and DataController384 V1.2.1 (Nanion Technologies). […] Current was recorded in whole cell configuration from a population of cells. […] Currents were recorded at room temperature. […]
Criterion: % Inhibition (Single Point Data) strictly less than 80%. Met: 1. Not met: -1.

- CC(C)(C)NC(=O)CN1C2CC1CN(CC(=O)Nc1ccc(F)c(C(F)F)c1)C2: -1
- C[C@H](NC(=O)CN1C[C@@H]2C[C@H]1CN2CC(=O)NC(C)(C)C)C12CC3CC(CC(C3)C1)C2: 1
- CC1(C)CCN(C(=O)CN2C3CCC2CN(Cc2nc4c(Cl)cc(F)cc4[nH]2)C3)C1: -1
- CC(C)(C)NC(=O)CN1CCC(CNc2nccc3c(F)cc(Cl)cc23)CC1: -1
- CC1(NC(=O)CN2C3CC2CN(Cc2nc4c(Cl)ccc(F)c4[nH]2)C3)COC1: 1
- CC(C(=O)Nc1cc(F)cc(OC(F)F)c1)N1C[C@@H]2C[C@H]1CN2CC(=O)NC(C)(C)C (some centres unmarked): -1
- CC(C)(NC(=O)CN1CC2CC1CN2Cc1nc2c(Cl)ccc(F)c2[nH]1)C(F)(F)F (centres unmarked): -1
- O=C(CN1CC2CC(C1)N2CCNC(=O)C1(C(F)(F)F)CCC1)Nc1ccc(F)c(Cl)c1: -1
- OC1(CN2CCN(Cc3nc4c(Cl)ccc(F)c4[nH]3)CC2)CCC(F)(F)CC1: 1

###

Target: Human Cav3.1 calcium channel (Homo sapiens, UniProt O43497)
Construct: expressed in transfected cells; host or cells: HEK-293 natClytin/TASK1+Cav3.1 cell line
Test: Human Cav3.1 calcium channel patch clamp assay (SyncroPatch 384PE; single point and IC50, voltage dependent block)
Type: cell-based
Details: Testing Conc 1; HEK-293 natClytin/TASK1+Cav3.1 cell line, patch clamp
QUANTITY KIND: % Inhibition (Single Point Data) (%)

• CC(C)(C)NC(=O)CN1CCC(=O)N(CC(=O)Nc2cc(F)cc(Cl)c2)CC1 = 25.144
• CC(C)(C)NC(=O)CN1CCN(Cc2cnc(-c3ccccc3)[nH]2)CC1 = 29.301
• CC(C)(C)NC(=O)CN1CCN(Cc2nnc(-c3cc(F)cc(Cl)c3)[nH]2)CC1 = 40.739
